System tested: cCaSR (Felis catus)
Sequence (C7FF08 1-1081): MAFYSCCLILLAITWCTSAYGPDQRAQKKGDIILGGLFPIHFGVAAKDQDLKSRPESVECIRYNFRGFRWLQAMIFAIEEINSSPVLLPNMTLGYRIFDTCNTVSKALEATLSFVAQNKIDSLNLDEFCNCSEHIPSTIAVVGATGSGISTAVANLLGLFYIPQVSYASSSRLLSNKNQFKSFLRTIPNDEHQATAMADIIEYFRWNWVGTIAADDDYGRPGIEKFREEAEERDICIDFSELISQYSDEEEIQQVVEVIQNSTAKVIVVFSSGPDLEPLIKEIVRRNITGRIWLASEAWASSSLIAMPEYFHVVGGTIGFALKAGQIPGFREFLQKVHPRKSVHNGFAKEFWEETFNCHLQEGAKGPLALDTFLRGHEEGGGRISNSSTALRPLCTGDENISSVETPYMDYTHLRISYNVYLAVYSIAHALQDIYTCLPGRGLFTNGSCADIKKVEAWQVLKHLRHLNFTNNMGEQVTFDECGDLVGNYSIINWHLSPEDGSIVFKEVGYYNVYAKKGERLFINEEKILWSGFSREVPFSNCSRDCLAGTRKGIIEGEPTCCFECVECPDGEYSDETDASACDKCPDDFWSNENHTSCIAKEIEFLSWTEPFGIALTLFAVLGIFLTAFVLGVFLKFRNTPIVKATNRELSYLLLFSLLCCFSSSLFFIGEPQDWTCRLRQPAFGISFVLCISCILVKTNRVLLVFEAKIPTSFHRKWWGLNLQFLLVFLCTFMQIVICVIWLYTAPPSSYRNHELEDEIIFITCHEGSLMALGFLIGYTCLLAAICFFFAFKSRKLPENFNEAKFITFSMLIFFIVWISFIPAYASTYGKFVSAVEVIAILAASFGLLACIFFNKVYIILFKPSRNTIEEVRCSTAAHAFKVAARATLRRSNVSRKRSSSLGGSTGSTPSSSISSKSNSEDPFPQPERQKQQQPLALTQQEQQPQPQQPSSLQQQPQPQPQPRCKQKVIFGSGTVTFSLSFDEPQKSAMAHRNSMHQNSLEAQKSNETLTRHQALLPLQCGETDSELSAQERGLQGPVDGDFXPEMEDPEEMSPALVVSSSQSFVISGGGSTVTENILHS
Assay text: cell-based
Test conditions: EC50 Ago (M), Supplementary Table I, agonist assay; > 0.01 M = maximal response not reached
Result type: EC50 (M)
Answer with a number only, understood to be in M.

Known EC50 results, listed for orientation:
Entry smiles: N[C@@H](CCC(=O)N[C@@H](CSCc1c[nH]c2ccccc12)C(=O)NCC(=O)O)C(=O)O
EC50 (M): 0.00375

Entry smiles: NCCCCNCCCN
EC50 (M): 0.0025

input: I'd like to know its EC50. The molecule in question is N[C@@H](CCC(=O)N[C@@H](CCC(=O)O)C(=O)O)C(=O)O
output: 0.00206

input: Repeat with N[C@@H](CCC(=O)N[C@@H](CS)C(=O)NCC(=O)O)C(=O)O
output: 0.0064

input: Repeat with N[C@@H](CC(=O)O)C(=O)O
output: 0.00411
